tested on: MOLT-4 leukemia; test: NCI-60 one-dose screen, 48 h (100 = growth as untreated, 0 = no growth, -100 = all killed); details: 10 µM unless noted
Compounds without any hit were thinned out: in the full panel of roughly 83,000, 20% have a hit. The source made the active and inactive calls. Rule for the calls: active = growth percent below 10; inactive = the rest.
Exercise: for every item that follows, state its recorded growth.

// lookup growth for C#CCOC(=O)Nc1ccccc1
104% (inactive)

Record: CCc1cc(C)cc(O)c1
98.1% (inactive)

And what about the compound COc1ccc(Nc2ccc3ccccc3c2)cc1 ?
71.5% (inactive)

What about Nc1nc(N)c2[nH]cnc2n1 ?
92.6% (inactive)

* * *

tested on: DU-145 prostate; assay: NCI-60 one-dose screen, 48 h (100 = growth as untreated, 0 = no growth, -100 = all killed); conditions: 10 µM unless noted
About 83,000 compounds went through this panel and 20% of them were active in at least one assay; those are over-represented in the sample as a whole.
Assay readout: growth (%)
A number alone suffices; assume %.

Endpoint output: growth of CC1=C/C(O)CC(=O)Cc2nc(co2)C(=O)N2CCC=C2C(=O)OC(C(C)C)C(C)/C=C\C(=O)NC/C=C\1 (centres undefined) . Value?
90.7

// repeat for CC(=O)OC(C)C(=O)NCC(C)O (centres undefined) and report
104

Do the same for CCCCCCCCCCCCCCCc1ccc(N)c(OC2OC(CO)C(O)C(O)C2O)c1 (centres undefined) please
119

Ok, now Brc1ccc(SSc2ccc(Br)cc2)cc1
93.6

Similarly, CC(C)C(C)(C)c1ccc(O)cc1 ?
107

Please answer likewise for CCCCNc1ccc(Nc2ccccc2)cc1
84

Also COc1ccc(C(=O)CC(c2ccccc2)C(C#N)c2ccccc2)cc1 (centres undefined) ?
92.2

Another compound to check: O=c1n(CC2CO2)c(=O)n(CC2CO2)c(=O)n1CC1CO1 (centres undefined)
25.7

Same again, this time with O=CN1CCCCC1
114

* * *

Test system: PC-3 prostate
Assay: NCI-60 one-dose screen, 48 h (100 = growth as untreated, 0 = no growth, -100 = all killed)
Conditions: 10 µM unless noted
Procedure: Growth inhibition of the PC-3 human tumor cell line is measured as a screen for anti-cancer activity. Cells are grown in 96 well plates and exposed to the test compound for 48 hours. Compounds are tested at a single concentration, which is 10^-5 M for most compounds. The reported endpoint is percent growth (GI% or GIPRCNT), where numbers from 0 - 100% represent growth inhibition, and numbers from -100% - 0 represent cell death. For example, a value of 40 represents 60% growth inhibition. […]
This is part of a sample that, as a whole, favours compounds with a hit. Of some 83,000 tested, about 20% had one in any assay.
Assay readout: growth (%)
All answers are understood in %, so give the number only.

Can you share its growth? I mean this compound: CCOC(=O)c1c(C)cc(=O)oc1C
92

Entry c1ccc2c(c1)OC1OC2Oc2ccccc21 please
91.6

Another compound to check: c1ccc(CNCCNCc2ccccc2)cc1
92.4

And ClCCOCCOc1ccc(C2CCCCC2)cc1 ?
101

Moving on to the next compound: O=CN1CCCCC1
106

And what about the compound Nc1ccc2c(O)cc(S(=O)(=O)O)cc2c1 ?
85.5

Cool, now CCCCCCCCCCNC(=O)CI
-39.8

Follow-up entry: NC(=O)NCCCC(N)C(=O)O (stereo not given)
95.5

Further, for OCC1OC(O)C(O)C(O)C1O (stereo not given) ?
92.2

Then this compound: CC1(C)COC(=S)N1
100

* * *

Assign growth to each entry below.
test system: HOP-62 NSCLC; test: NCI-60 one-dose screen, 48 h (100 = growth as untreated, 0 = no growth, -100 = all killed); conditions: 10 µM unless noted
About 83,000 compounds went through this panel and 20% of them were active in at least one assay; those are over-represented in the sample as a whole.
Express the result in % but write the number alone.

Consider the compound O=C1OC(c2ccccc2)=N/C1=C\c1ccccc1 and give its measured growth.
99.6

Then this compound: CCCCNc1ccc(Nc2ccccc2)cc1
106

Follow-up entry: O=CN1CCCCC1
102

What about CCCCOC(=O)/C=C\C(=O)NC(N)=O ?
95.1

Another: Oc1ccc(Cc2ccccc2Cl)c(O)c1
91.9

Thanks! And CC(=O)OCC1OC(OC(C)=O)C(OC(C)=O)C(OC(C)=O)C1OC(C)=O (stereo unspecified) ?
83.4

* * *

Give measured growth for each item. Keep answers brief.
tested on: OVCAR-5 ovarian; assay: NCI-60 one-dose screen, 48 h (100 = growth as untreated, 0 = no growth, -100 = all killed); settings: 10 µM unless noted
The panel holds about 83,000 compounds, 20% with a hit somewhere; the sample as a whole holds those more often.
Entry rule: numbers only, all in %.

Hi! What's the reported growth for CN(C)CC1CCCCCC(CN(C)C)C1=O (stereo unspecified) on OVCAR-5 ovarian?
146

Next record, please: OCC1OC(O)C(O)C(O)C1O (stereo unspecified)
106

Then this compound: Cc1cc(-c2ccc(N=Nc3ccc4c(S(=O)(=O)O)cc(S(=O)(=O)O)c(N)c4c3O)c(C)c2)ccc1N=Nc1ccc2c(S(=O)(=O)O)cc(S(=O)(=O)O)c(N)c2c1O
90.2

Proceed to c1ccc(CNCCNCc2ccccc2)cc1
102

Then Fc1ccc([I+]c2ccc(F)cc2)cc1 ?
92.9

Ok, now OC1COC(OCc2ccccc2)C(O)C1O (stereo unspecified)
99.1

* * *

system: HT29 colon; test: NCI-60 one-dose screen, 48 h (100 = growth as untreated, 0 = no growth, -100 = all killed); conditions: 10 µM unless noted
Compounds without any hit were thinned out: in the full panel of roughly 83,000, 20% have a hit. Activity calls are given as the source filed them. The calls were made as follows: active = growth percent below 10; inactive = the rest.
Give measured growth for each item. Keep answers brief.

Need growth of CCCCCCCCCCCCCCCc1ccc(N)c(OC2OC(CO)C(O)C(O)C2O)c1 (centres undefined) , thanks.
103% (inactive)

Try this molecule too: CC(C)(O)C(=O)O
104% (inactive)

Another molecule to look at: O=C(Cc1ccccc1)c1ccc(O)c(Cl)c1
30.2% (inactive)

Similarly, O=CN1CCCCC1 ?
108% (inactive)

* * *

tested on: SF-539 CNS; assay: NCI-60 one-dose screen, 48 h (100 = growth as untreated, 0 = no growth, -100 = all killed); conditions: 10 µM unless noted
Compounds without any hit were thinned out: in the full panel of roughly 83,000, 20% have a hit.
Assay readout: growth (%)
Provide only the numeric value, understood in %.

Field request: growth | item: O=C(/C=C/c1ccccc1)c1ccccc1
88.2

Entry Cc1cc(-c2ccc(N=Nc3ccc4c(S(=O)(=O)O)cc(S(=O)(=O)O)c(N)c4c3O)c(C)c2)ccc1N=Nc1ccc2c(S(=O)(=O)O)cc(S(=O)(=O)O)c(N)c2c1O please
90.8

Same thing, different compound: CCCCNc1ccc(Nc2ccccc2)cc1
83.8

And then Brc1ccc(SSc2ccc(Br)cc2)cc1 , what is it?
56.1

Let us now turn to CC(C)NC(=O)N/C=C(\C#N)C(N)=O
97.9

Same again, this time with OCCN1CCCCCCC1
98.7

Can you handle Nc1nc(N)c2[nH]cnc2n1 next?
92.8

Cool, now Fc1ccc([I+]c2ccc(F)cc2)cc1
62.1

Now give it for CC1CCC(C(C)C)C(NNC(N)=O)C1 (configuration not stated) too.
110

What about Cn1cnc([N+](=O)[O-])c1Sc1ncn[nH]1 ?
103

Please do the same for CCOC(=O)c1c(C)cc(=O)oc1C as well.
107

Try this compound too: C/C(=C\c1ccccc1)c1ccccn1
98.1

* * *

system: IGROV1 ovarian; test: NCI-60 one-dose screen, 48 h; conditions: 10 µM unless noted
About 83,000 compounds went through this panel and 20% of them were active in at least one assay; those are over-represented in the sample as a whole. Calls of active or inactive are those of the source. Rule for the calls: active = growth percent below 10; inactive = the rest.
Hello, when you answer, please use one of the following outcomes: 1 = active, -1 = inactive

How was NN1CCOC(c2ccccc2)C1 (centres undefined) classified in this test?
-1

Proceed to CC1=C/C(O)CC(=O)Cc2nc(co2)C(=O)N2CCC=C2C(=O)OC(C(C)C)C(C)/C=C\C(=O)NC/C=C\1 (centres undefined)
1

What about this compound? Fc1ccc([I+]c2ccc(F)cc2)cc1
-1

Similarly, Cn1cnc([N+](=O)[O-])c1Sc1ncn[nH]1 ?
-1

* * *

test system: MDA-MB-231 breast; assay: NCI-60 one-dose screen, 48 h; conditions: 10 µM unless noted
This is part of a sample that, as a whole, favours compounds with a hit. Of some 83,000 tested, about 20% had one in any assay. Activity calls are given as the source filed them. How the source made its calls: active means growth percent below 10; inactive means the rest.
Could you please pick one outcome from this set? active, inactive

Hello, I am checking results. What call was entered for COc1ccc2cc1Oc1ccc(cc1)C[C@H]1c3cc(c(OC)cc3CCN1C)Oc1c(OC)c(OC)cc3c1[C@H](C2)N(C)CC3 ?
active

Would you mind doing COc1cc(C(O)C2C(=O)OCC2C2(c3ccc4c(c3)OCO4)SCCCS2)cc(OC)c1OC (stereo not drawn) as well?
inactive

Request: N#CC(C#N)N=Nc1cc(Cl)ccc1Cl
inactive
